Biological target: PDE10 (UniProt Q8CA95)
Sequence (Q8CA95 1-790): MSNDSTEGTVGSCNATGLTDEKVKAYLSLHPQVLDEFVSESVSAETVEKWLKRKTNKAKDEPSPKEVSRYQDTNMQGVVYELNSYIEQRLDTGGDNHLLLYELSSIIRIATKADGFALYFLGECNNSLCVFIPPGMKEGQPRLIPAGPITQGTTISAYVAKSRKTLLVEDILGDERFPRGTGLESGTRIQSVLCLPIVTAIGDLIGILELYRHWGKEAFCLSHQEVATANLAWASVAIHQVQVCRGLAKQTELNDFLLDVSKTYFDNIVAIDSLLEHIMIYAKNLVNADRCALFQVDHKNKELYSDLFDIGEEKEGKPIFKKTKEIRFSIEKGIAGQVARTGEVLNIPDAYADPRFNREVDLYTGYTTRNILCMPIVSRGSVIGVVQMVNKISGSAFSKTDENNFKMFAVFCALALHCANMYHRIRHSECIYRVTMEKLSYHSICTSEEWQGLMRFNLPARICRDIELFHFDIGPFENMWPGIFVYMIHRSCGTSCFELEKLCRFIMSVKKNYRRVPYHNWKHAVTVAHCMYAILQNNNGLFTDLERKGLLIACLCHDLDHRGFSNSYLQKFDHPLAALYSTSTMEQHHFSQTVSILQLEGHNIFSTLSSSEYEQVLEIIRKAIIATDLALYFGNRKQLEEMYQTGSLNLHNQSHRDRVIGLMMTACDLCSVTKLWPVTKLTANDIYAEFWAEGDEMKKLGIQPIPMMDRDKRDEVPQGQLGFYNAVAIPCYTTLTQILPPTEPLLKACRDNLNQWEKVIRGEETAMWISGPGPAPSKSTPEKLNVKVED
Experiment: PDE10 enzyme inhibition, IMAP TR-FRET assay (Example A: MPDE10A7 Enzyme Activity and Inhibition)
Assay type: biochemical
Settings: read-out: IC50
readout-label: pIC50
Note on units: pIC50 is unitless, being -log10 of a concentration expressed in mol/L.

1. Clc1ccc2[nH]c(C3CN(c4cc(C5CCOCC5)ncn4)C3)nc2c1 = 5.89

Turning now to a further record.
Form field pIC50, entry Cc1ccc2[nH]c(C3CN(c4c(Cl)cncc4Cl)C3)nc2c1 : 6.68

###

Target: PDE10 (UniProt Q8CA95)
Experiment: PDE10 enzyme inhibition, IMAP TR-FRET assay (Example A: MPDE10A7 Enzyme Activity and Inhibition)
Format: biochemical
Conditions: read-out: IC50
With a cut-off of 1000 nM, any IC50 strictly below it is called Condition met; any IC50 meeting it or above is called Condition not met.

Quick check: does Clc1ccc2[nH]c(C3CN(c4cc(OC5CCOCC5)ccn4)C3)nc2c1 [Example 5] have IC50 under 1000 nM?
Condition not met

Determine if CNC(=O)c1nccnc1N1CC(c2nc3cc(Cl)ccc3[nH]2)C1 [Example 4] shows IC50 strictly lower than 1000 nM.
Condition not met

In the record for Clc1ccc2[nH]c(C3CN(c4cc(C5CCOCC5)ccn4)C3)nc2c1 [Example 9] , is IC50 less than 1000 nM?
Condition not met

Here's an entry: Cc1cccc(-c2nccnc2N2CC(c3ccc4ccccc4n3)C2)c1 [Example 58] . Is its IC50 below 1000 nM?
Condition met

Threshold test, IC50 < 1000 nM: O=C(c1cccnc1N1CC(c2nc3cc(Cl)ccc3[nH]2)C1)N1CC(O)C1 [Example 3]
Condition met

Is the reported IC50 for c1cnc(N2CC(c3ccc4ccccc4n3)C2)c(N2CCCCC2)c1 [Example 59] strictly below 1000 nM?
Condition met

Dear colleague, could you confirm whether IC50 of Clc1ccc2[nH]c(C3CN(c4nccnc4OC4CCOCC4)C3)nc2c1 [Example 10] falls below 1000 nM? Thanks.
Condition met

I wonder whether COc1cccc(-c2cccnc2N2CC(c3ccc4ccccc4n3)C2)c1 [Example 60] has IC50 below 1000 nM. Can you tell?
Condition not met

Please check: IC50 for Cc1ccc2[nH]c(C3CN(c4nccnc4OC4CCOCC4)C3)nc2c1 [Example 1C] , strictly under 1000 nM or not?
Condition met

FYI, the data here is from patent US8946230B2.
